biological target: NFE2L1 (Homo sapiens); experiment: Direct-binding FRET assay; set-up: made in house; settings: 23°C; N-terminal rhodamine design; mean or single; read-out: Kd
Sequence (Q14494 654-717 limits assumed): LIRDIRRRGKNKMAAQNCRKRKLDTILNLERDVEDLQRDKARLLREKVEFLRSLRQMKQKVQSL
pKd: −log10 of the molar value. Where no end group is shown, it is not given here.
Property measured: pKd

Look over these answered cases.
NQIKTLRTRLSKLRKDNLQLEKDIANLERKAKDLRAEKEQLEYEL [ATF4-d1] = < 6.00
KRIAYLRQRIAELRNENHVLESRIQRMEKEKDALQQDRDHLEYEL [ATF5-d1] = < 6.00

Lab book: pKd of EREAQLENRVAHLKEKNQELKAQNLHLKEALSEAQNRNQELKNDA [XBP1-d1] noted as < 6.00

* * *

target: CREB3 (Homo sapiens, UniProt O43889); construct: made in house; assay: Direct-binding FRET assay; details: 37°C; N-terminal rhodamine design; mean or single; read-out: Kd
Sequence (O43889 150-213 limits assumed): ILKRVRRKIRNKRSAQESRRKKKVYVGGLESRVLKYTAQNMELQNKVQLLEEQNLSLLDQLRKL
Where no end group is shown, it is not given here.
Property measured: Kd

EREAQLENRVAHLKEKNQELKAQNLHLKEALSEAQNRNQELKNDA [XBP1-d1] = > 1 µM

For every item below, please supply its Kd.
1. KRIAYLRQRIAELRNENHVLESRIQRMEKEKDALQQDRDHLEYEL [ATF5-d1]
2. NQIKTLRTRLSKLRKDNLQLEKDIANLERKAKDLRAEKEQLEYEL [ATF4-d1]

result:
> 1 µM
> 1 µM

* * *

biological target: FOSL1 (Homo sapiens); construct: made in house; assay: Direct-binding FRET assay; settings: 23°C; N-terminal rhodamine design; mean or single
Sequence (P15407 105-168 limits assumed): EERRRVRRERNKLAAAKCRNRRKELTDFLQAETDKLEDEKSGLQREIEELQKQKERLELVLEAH
pKd: −log10 of the molar value. Where no end group is shown, it is not given here.
Property measured: pKd

Summary line: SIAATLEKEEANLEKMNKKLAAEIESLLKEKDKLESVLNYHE [JUN-d1] , FOSL1 (Homo sapiens), reported pKd = < 6.00

* * *

Kindly state pKd for each of the entries shown.
Biological target: FOS (Homo sapiens, UniProt P01100)
Sequence (P01100 137-200 limits assumed): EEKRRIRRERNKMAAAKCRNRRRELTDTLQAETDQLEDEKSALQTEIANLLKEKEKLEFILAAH
Test: Direct-binding FRET assay
Set-up: made in house
Conditions: 37°C; C-terminal rhodamine design; repeat 1; read-out: Kd
Procedure: The direct binding assay was performed manually in 384-well plates and is similar to a previously described assay. Wells were filled with 20 μL of 1 mM TCEP-HCl. […] Briefly, the Kd of the designed peptide homodimer was experimentally determined and used with previously determined target homodimer Kd values to determine the heterodimer Kd. […] A minimum 15% change in the donor fluorescence upon titrating the acceptor peptide from 0 to 1000 nM was required for a fit to be attempted. […]
pKd: −log10 of the molar value. Where no end group is shown, it is not given here.

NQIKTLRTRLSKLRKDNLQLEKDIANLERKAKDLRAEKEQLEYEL [ATF4-d1] = < 6.00

Next up:
Lab book: pKd of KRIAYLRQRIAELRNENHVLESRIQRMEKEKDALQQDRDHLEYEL [ATF5-d1] noted as < 5.30

* * *

biological target: CREB3L1 (Homo sapiens); construct: made in house; experiment: Direct-binding FRET assay; settings: 37°C; N-terminal rhodamine design; mean or single
Sequence (Q96BA8 290-353 limits assumed): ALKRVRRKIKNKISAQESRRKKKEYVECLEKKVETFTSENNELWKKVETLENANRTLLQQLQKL
Where no end group is shown, it is not given here.
Property measured: Kd

Lab book: Kd of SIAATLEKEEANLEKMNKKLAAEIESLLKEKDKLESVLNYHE [JUN-d1] noted as > 1000 nM

* * *

Target: NFE2L3 (Homo sapiens, UniProt Q9Y4A8)
Construct: made in house
Sequence (Q9Y4A8 578-641 limits assumed): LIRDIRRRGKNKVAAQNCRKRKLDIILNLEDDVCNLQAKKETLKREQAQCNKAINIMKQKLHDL
Assay: Direct-binding FRET assay
Settings: 23°C; N-terminal rhodamine design; mean or single; read-out: Kd
Experimental: The direct binding assay was performed manually in 384-well plates and is similar to a previously described assay. Wells were filled with 20 μL of 1 mM TCEP-HCl. […] Briefly, the Kd of the designed peptide homodimer was experimentally determined and used with previously determined target homodimer Kd values to determine the heterodimer Kd. […] A minimum 15% change in the donor fluorescence upon titrating the acceptor peptide from 0 to 1000 nM was required for a fit to be attempted. […]
Where no end group is shown, it is not given here.
Kindly state Kd for each of the entries shown.

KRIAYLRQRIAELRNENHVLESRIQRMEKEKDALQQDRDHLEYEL [ATF5-d1] = > 1000 nM
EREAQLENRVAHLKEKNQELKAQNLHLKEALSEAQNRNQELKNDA [XBP1-d1] = > 1000 nM

Lab book: Kd of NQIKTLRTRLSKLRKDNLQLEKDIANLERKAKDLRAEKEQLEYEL [ATF4-d1] noted as > 1000 nM

* * *

Kindly state Kd for each of the entries shown.
molecular target: BACH1 (Homo sapiens); assay: Direct-binding FRET assay; design: made in house; settings: 23°C; C-terminal rhodamine design; mean or single; read-out: Kd
Sequence (O14867 557-620 limits assumed): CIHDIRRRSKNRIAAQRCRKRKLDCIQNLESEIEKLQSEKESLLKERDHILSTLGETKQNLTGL
Where no end group is shown, it is not given here.

Look over these answered cases.
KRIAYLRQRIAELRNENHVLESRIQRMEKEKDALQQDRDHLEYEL [ATF5-d1] = > 1000 nM
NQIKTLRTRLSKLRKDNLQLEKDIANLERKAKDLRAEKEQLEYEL [ATF4-d1] = > 1000 nM

Next up:
Lab book: Kd of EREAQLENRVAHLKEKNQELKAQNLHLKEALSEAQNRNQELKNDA [XBP1-d1] noted as > 1000 nM

* * *

molecular target: FOS (Homo sapiens); assay: Direct-binding FRET assay; parameters: made in house; conditions: 4°C; N-terminal rhodamine design; mean or single
Where no end group is shown, it is not given here.
Property measured: Kd

Lab book: Kd of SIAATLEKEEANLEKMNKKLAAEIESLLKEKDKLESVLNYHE [JUN-d1] noted as > 1000 nM

* * *

target: ATF6 (Homo sapiens); assay: Direct-binding FRET assay; design: made in house
Sequence (P18850 306-369 limits assumed): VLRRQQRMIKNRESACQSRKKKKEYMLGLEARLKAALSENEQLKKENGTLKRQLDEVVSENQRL
Where no end group is shown, it is not given here.
Property measured: Kd

Summary line: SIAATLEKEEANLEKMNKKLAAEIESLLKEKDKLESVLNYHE [JUN-d1] , ATF6 (Homo sapiens), reported Kd = > 1000 nM

* * *

Kindly state pKd for each of the entries shown.
target: BATF3 (Homo sapiens); construct: made in house; assay: Direct-binding FRET assay; conditions: 23°C; C-terminal rhodamine design; mean or single; read-out: Kd
pKd: −log10 of the molar value. Where no end group is shown, it is not given here.

Look over these answered cases.
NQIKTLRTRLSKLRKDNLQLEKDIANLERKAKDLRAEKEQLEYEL [ATF4-d1] = < 6.00
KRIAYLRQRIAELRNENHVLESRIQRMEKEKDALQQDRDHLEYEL [ATF5-d1] = 6.10

Summary line: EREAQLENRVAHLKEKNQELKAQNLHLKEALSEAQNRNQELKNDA [XBP1-d1] , BATF3 (Homo sapiens), reported pKd = < 6.00

* * *

target: MAFF (Homo sapiens, UniProt Q9ULX9); construct: made in house; experiment: Direct-binding FRET assay; details: 23°C; C-terminal rhodamine design; repeat 1
Where no end group is shown, it is not given here.
Property measured: Kd

Lab book: Kd of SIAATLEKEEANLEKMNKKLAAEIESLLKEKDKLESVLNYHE [JUN-d1] noted as > 1000 nM

* * *

biological target: BATF (Homo sapiens, UniProt Q16520); construct: made in house; experiment: Direct-binding FRET assay; details: Kd, 23°C; N-terminal rhodamine design; mean or single
Sequence (Q16520 26-89 limits assumed): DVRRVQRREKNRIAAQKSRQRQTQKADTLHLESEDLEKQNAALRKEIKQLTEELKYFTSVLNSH
Where no end group is shown, it is not given here.
Property measured: Kd

Summary line: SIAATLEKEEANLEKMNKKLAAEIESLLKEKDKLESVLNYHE [JUN-d1] , BATF (Homo sapiens, UniProt Q16520), reported Kd = > 1000 nM

* * *

Target: BACH2 (Homo sapiens, UniProt Q9BYV9)
Sequence (Q9BYV9 646-709 limits assumed): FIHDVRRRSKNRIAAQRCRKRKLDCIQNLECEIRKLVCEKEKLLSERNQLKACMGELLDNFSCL
Assay: Direct-binding FRET assay
Design: made in house
Details: 23°C; C-terminal rhodamine design; mean or single; read-out: Kd
Experimental: The direct binding assay was performed manually in 384-well plates and is similar to a previously described assay. Wells were filled with 20 μL of 1 mM TCEP-HCl. […] Briefly, the Kd of the designed peptide homodimer was experimentally determined and used with previously determined target homodimer Kd values to determine the heterodimer Kd. […] A minimum 15% change in the donor fluorescence upon titrating the acceptor peptide from 0 to 1000 nM was required for a fit to be attempted. […]
Where no end group is shown, it is not given here.
Property measured: Kd

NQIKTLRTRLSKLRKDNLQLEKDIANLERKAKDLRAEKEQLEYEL [ATF4-d1] = > 1000 nM
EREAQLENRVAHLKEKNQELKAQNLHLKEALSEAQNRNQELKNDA [XBP1-d1] = > 1000 nM

Lab book: Kd of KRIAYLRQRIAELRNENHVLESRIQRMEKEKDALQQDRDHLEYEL [ATF5-d1] noted as > 5000 nM

* * *

Biological target: MAFF (Homo sapiens)
Construct: made in house
Sequence (Q9ULX9 51-114 limits assumed): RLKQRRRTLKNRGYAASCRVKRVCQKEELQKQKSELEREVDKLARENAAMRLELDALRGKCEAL
Assay: Direct-binding FRET assay
Settings: 37°C; C-terminal rhodamine design; mean or single; read-out: Kd
Where no end group is shown, it is not given here.
Property measured: Kd

For every item below, please supply its Kd.
1. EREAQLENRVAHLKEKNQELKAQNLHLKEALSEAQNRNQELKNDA [XBP1-d1]
2. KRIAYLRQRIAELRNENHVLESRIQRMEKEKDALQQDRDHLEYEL [ATF5-d1]

result:
1: > 1000 nM; 2: > 5000 nM
